# tgt: Cytochrome P450 2D6 (Homo sapiens)
# run.description: qHTS Assay for Inhibitors and Substrates of Cytochrome P450 2D6 (AID 891); also: nearly all actives have a fitted effect of over 60% in size
# particulars: recombinant CYP2D6, luciferin-ME EGE luminescence; series mostly up to 57.1 µM
Results filed as inconclusive are left out. Activity calls are given as the source filed them. Calls follow the shape of the dose curve; as a rule, active = well fitted inhibition curve with a large enough effect; inconclusive = small, poorly fitted or top-dose-only effect; inactive = no such curve, though single readings can be large or run the other way.
Allowed answers: 1 (active), 0 (inactive)

Input: How did this test come out for `NCCS(=O)O` ?
Output: 0

Input: How did this test come out for `CC(C)(CO)Cc1cc(C(C)(C)C)c(O)c(C(C)(C)C)c1` ?
Output: 0

Input: How did this test come out for `CCCCCCN(CCCCCC)C(=O)Cc1c(-c2ccc(F)cc2)[nH]c2ccccc12` ?
Output: 0

Input: How did this test come out for `N[C@H](C(=O)O)c1cc(O)cc(O)c1` ?
Output: 0

Input: How did this test come out for `CSC(=N)N` ?
Output: 1

Input: How did this test come out for `O=C(c1ccc2c(c1)OCCO2)N1CCCCC1` ?
Output: 0

Input: How did this test come out for `c1ccc(CN2CCC3(CCCc4ccccc43)CC2)cc1` ?
Output: 1

Input: How did this test come out for `NC(N)=NC(N)=Nc1ccccc1` ?
Output: 0

Input: How did this test come out for `C[C@](Cc1ccc(O)c(O)c1)(NN)C(=O)O` ?
Output: 0

Input: How did this test come out for `CN[C@H](CC(=O)O)C(=O)O` ?
Output: 0

Input: How did this test come out for `Oc1cc(O)c2c(c1)O[C@H](c1ccc(O)c(O)c1)[C@@H](O)C2` ?
Output: 0

Input: How did this test come out for `C=C1C(=O)O[C@@H]2[C@H]3O[C@]3(C)CCC=C(C)CC[C@@H]12` ?
Output: 0

Input: How did this test come out for `CC[C@H](NC(=O)c1c(C)c(-c2ccccc2)nc2ccccc12)c1ccccc1` ?
Output: 0

Input: How did this test come out for `O=[N+]([O-])c1cccc2cn[nH]c12` ?
Output: 0

Input: How did this test come out for `O=C(O)c1cccnc1C(=O)O` ?
Output: 0

Input: How did this test come out for `C[C@H](NC(=O)/C(C#N)=C/c1ccc(O)c(O)c1)c1ccccc1` ?
Output: 0

Input: How did this test come out for `Cn1cc(C(=O)OCC2CCN(CCNS(C)(=O)=O)CC2)c2ccccc21` ?
Output: 0

Input: How did this test come out for `NC(=O)c1ccccc1` ?
Output: 0

Input: How did this test come out for `Cc1nc(N=Nc2cc(S(=O)(=O)O)c3cc([N+](=O)[O-])cc(S(=O)(=O)O)c3c2)c(COP(=O)(O)O)c(C=O)c1O` ?
Output: 0

Input: How did this test come out for `NC/C=C\C(=O)O` ?
Output: 0

Input: How did this test come out for `CC(=O)C(C)=O` ?
Output: 0

Input: How did this test come out for `CC(=O)NNC(=O)N1Cc2ccccc2Oc2ccc(Cl)cc21` ?
Output: 1

====

# tgt: Guanidinoacetate N-methyltransferase (Homo sapiens) (UniProt Q14353)
# run.description: Confirmatory Screen for Target Class Profiling of Small Molecule Inhibitors of Methyltransferases (AID 1745852); also: potency is read from the fitted curve at half-maximal effect
# particulars: MTase-Glo luminescence, SAH detection, recombinant enzyme
The source made the active and inactive calls. Calls come from the whole dose curve.
observation.type: Potency

The compound listed as `N#C/C(=C\c1ccc(O)c(O)c1)C(=O)NCCCNC(=O)/C(C#N)=C/c1ccc(O)c(O)c1` shows Potency equal to 4.85 µM (active)

The compound listed as `N#C/C(=C\c1ccc(O)c(O)c1)C(=O)NCCc1ccccc1` shows Potency equal to 0.432 µM (active)

The compound listed as `CCCc1c(-c2ccc(O)cc2)nn(-c2ccc(O)cc2)c1-c1ccc(O)cc1` shows Potency equal to 43.2 µM (active)

The compound listed as `COc1cc(/C=C(\C#N)C(=O)c2ccc(O)c(O)c2)cc(I)c1O` shows Potency equal to 24.3 µM (active)

The compound listed as `CC[C@@H]1Cc2cc(O)ccc2C2=C1c1ccc(O)cc1C[C@H]2CC` shows Potency equal to 43.2 µM (active)

Data provenance: PubChem BioAssay (NCATS)
